system-tested: human Nav1.1 (Homo sapiens, UniProt P35498)
Construct: host or cells: HEK293
test-name: Amplification of Nav1.1-derived voltage-gated sodium current (Nav1.1 current), automated patch clamp (Test 1)
Type: cell-based
condition-label: Concentration for evaluation 50 μM; HEK293 cell line stably expressing human Nav1.1
Class key for Nav1.1 current amplification rate (%) values: low: < 30%; mid: ≥ 30% and < 50%; high: ≥ 50%

Take a look at these entries with their results.
>  <compound>
Cc1ccc(F)c(Nc2ncc3cnn(CC(=O)Nc4ccn5ncnc5c4)c3n2)c1

>  <category>
low

$$$$
>  <compound>
Cc1ccc(-c2ncc3cnn(CC(=O)Nc4ccn5ncnc5c4)c3n2)o1

>  <category>
mid

$$$$
>  <compound>
CC(C)N(C)c1cnc2cnn(CC(=O)Nc3ccc4ncnn4c3)c2n1

>  <category>
high

$$$$
>  <compound>
Cc1c(NC(=O)Cn2nc(C3=CCC(C)CC3)ccc2=O)ccc2ncnn12 (stereo not drawn)

>  <category>
mid

$$$$

[Q] Kindly state the category for this compound: Cc1cccc(F)c1Nc1ncc2cnn(CC(=O)Nc3ccn4ncnc4c3)c2n1
[A] low

[Q] Here is the next compound: CC1CC=C(c2ccc(=O)n(CC(=O)N3CCc4c(C=C5CCNCC5)cccc43)n2)CC1 (stereo not drawn)
[A] high

[Q] Here is the next compound: Cc1nc(N2CCN(C(=O)Cn3nc(C4=CCC(C)CC4)ccc3=O)CC2)no1 (stereo not drawn)
[A] high

[Q] Here is the next compound: Cc1cc2nc(NC(=O)Cn3nc(C4=CCC(C)CC4)ccc3=O)ccn2n1 (stereo not drawn)
[A] mid

[Q] Here is the next compound: CC1CC=C(c2ccc(=O)n(CC(=O)Nc3cncc(CN(C)C)c3)n2)CC1 (stereo not drawn)
[A] mid

[Q] Here is the next compound: Cc1ccc(-c2ccc(=O)n(CC(=O)N3CCc4ccccc43)n2)cc1
[A] low

[Q] Here is the next compound: O=C(Cn1nc(C2=CCCC2)ccc1=O)Nc1ccn2ccnc2c1
[A] low

[Q] Here is the next compound: CC1CC=C(c2ccc(=O)n(CC(=O)Nc3ccc4ncccc4c3)n2)CC1 (stereo not drawn)
[A] mid

[Q] Here is the next compound: CC1CC=C(c2ccc(=O)n(CC(=O)NC3CCN(c4ccccc4)C3)n2)CC1 (stereo not drawn)
[A] low

[Q] Here is the next compound: CN(c1cnc2cnn(CC(=O)Nc3cc4ccccc4cn3)c2n1)C1CC1
[A] mid

[Q] Here is the next compound: O=C(Cn1ncc2cnc(N3CC(C4CC4)C3)nc21)Nc1ccn2ncnc2c1
[A] high

[Q] Here is the next compound: CC1CC=C(c2ccc(=O)n(CC(=O)N3CCc4c(-c5cc[nH]n5)ccnc43)n2)CC1 (stereo not drawn)
[A] high

[Q] Here is the next compound: COCCCN1CC2(CCN(C(=O)Cn3nc(C4=CCC(C)CC4)ccc3=O)C2)C1 (stereo not drawn)
[A] low
